# Assay procedure: Percentage unbound in rat plasma
# Assay type: ADME, cell-free

[
  {
    "Compound": "[2H]C([2H])([2H])N(C(=O)c1c(F)cccc1Cl)c1ccc(-c2cc(NC(C)=O)nn2C(C)C)cc1OCC(C)C",
    "Rel": "=",
    "fraction unbound": 0.002
  },
  {
    "Compound": "[2H]C([2H])([2H])N(C(=O)c1c(F)cccc1Cl)c1ccc(-c2cc(NC(C)=O)nn2C(C)C)cc1-c1ccccc1",
    "Rel": "=",
    "fraction unbound": 0.004
  },
  {
    "Compound": "[2H]C([2H])([2H])N(C(=O)c1c(F)cccc1Cl)c1ccc(-c2cc(NC(C)=O)nn2C2CCCC2)cc1N1CC2CC2C1 (centres undefined)",
    "Rel": "<",
    "fraction unbound": 0.0005
  },
  {
    "Compound": "[2H]C([2H])([2H])N(C(=O)c1c(F)cccc1Cl)c1ccc(-c2cc(NC(C)=O)nn2C2CCC2)cc1N1CC2CC2C1 (centres undefined)",
    "Rel": "=",
    "fraction unbound": 0.0004
  },
  {
    "Compound": "[2H]C([2H])([2H])N(C(=O)c1c(F)cccc1Cl)c1ccc(-c2cc(NC(C)=O)nn2C(C)C)cc1N1CC2CC2C1 (centres undefined)",
    "Rel": "=",
    "fraction unbound": 0.002
  },
  {
    "Compound": "[2H]C([2H])([2H])N(C(=O)c1c(F)cccc1Cl)c1ccc(-c2cc(C(N)=O)nn2C(C)C)cc1OCC(F)(F)F",
    "Rel": "=",
    "fraction unbound": 0.031
  },
  {
    "Compound": "[2H]C([2H])([2H])N(C(=O)c1c(F)cccc1Cl)c1ccc(-c2cnn(C)c2C(C)C)cc1OCC(F)(F)F",
    "Rel": "=",
    "fraction unbound": 0.006
  },
  {
    "Compound": "[2H]C([2H])([2H])N(C(=O)c1c(F)cccc1Cl)c1ccc(-c2cc(NC(C)=O)nn2C(C)C)cc1N1CCCC1",
    "Rel": "=",
    "fraction unbound": 0.009
  },
  {
    "Compound": "[2H]C([2H])([2H])N(C(=O)c1c(F)cccc1Cl)c1ccc(-c2cc(C(N)=O)ccc2Cl)cc1OCC(F)(F)F",
    "Rel": "=",
    "fraction unbound": 0.002
  }
]

###

# Assay system: Nuclear receptor ROR-gamma (Homo sapiens, UniProt P51449)
# Sequence (P51449 whole entry, the tested form may be a part): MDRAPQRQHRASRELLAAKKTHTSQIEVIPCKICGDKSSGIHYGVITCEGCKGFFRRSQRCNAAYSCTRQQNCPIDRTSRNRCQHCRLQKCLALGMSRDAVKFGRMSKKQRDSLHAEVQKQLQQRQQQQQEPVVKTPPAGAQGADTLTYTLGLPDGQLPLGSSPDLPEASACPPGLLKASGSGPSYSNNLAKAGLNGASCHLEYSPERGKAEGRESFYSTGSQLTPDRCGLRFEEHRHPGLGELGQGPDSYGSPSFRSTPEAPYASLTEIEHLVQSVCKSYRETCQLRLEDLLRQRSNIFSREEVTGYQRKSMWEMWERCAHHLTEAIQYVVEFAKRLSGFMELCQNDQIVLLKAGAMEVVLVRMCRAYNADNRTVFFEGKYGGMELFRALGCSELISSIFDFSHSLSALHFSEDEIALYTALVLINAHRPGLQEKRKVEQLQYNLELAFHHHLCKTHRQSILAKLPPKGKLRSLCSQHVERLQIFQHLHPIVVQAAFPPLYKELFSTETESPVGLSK
# Assay procedure: Binding affinity to GST-tagged RORgamma LBD (unknown origin) assessed as inhibition of interaction with co-activatior peptide TRAP220 preincubated for 1 hr followed by TRAP220 addition by FRET analysis

[
  {
    "Smiles representation": "[2H]C([2H])([2H])N(C(=O)c1c(F)cccc1Cl)c1ccc(-c2cc(C(N)=O)ccc2Cl)cc1OCC(F)(F)F",
    "Rel": "=",
    "IC50, nM": 29
  },
  {
    "Smiles representation": "CC(=O)Nc1nc(-c2cnc(N(C)C(=O)c3c(F)cccc3Cl)c(N3CCCCC3)c2)n(C(C)C)n1",
    "Rel": ">",
    "IC50, nM": 5000
  }
]

###

# Assay system: UniProtKB P51449
# Assay procedure: Inverse agonist activity at RORgamma (unknown origin) transfected in HEK293T cells after 16 to 20 hrs by GAL4 luciferase reporter gene assay

[
  {
    "Compound": "[2H]C([2H])([2H])N(C(=O)c1c(F)cccc1Cl)c1ccc(-c2cc(C(N)=O)ccc2Cl)cc1OCC(F)(F)F",
    "Rel": "=",
    "EC50 [nM]": 98
  },
  {
    "Compound": "[2H]C([2H])([2H])N(C(=O)c1c(F)cccc1Cl)c1ccc(-c2cc(NC(=O)NC(CO)CO)nn2C(C)C)cc1N1CC2CC2C1 (stereo not given)",
    "Rel": "=",
    "EC50 [nM]": 71
  },
  {
    "Compound": "[2H]C([2H])([2H])N(C(=O)c1c(F)cccc1Cl)c1ccc(-c2cc(NC(=O)OC3(C)CC3)nn2C(C)C)cc1N1CC2CC2C1 (stereo not given)",
    "Rel": "=",
    "EC50 [nM]": 150
  },
  {
    "Compound": "CC(=O)Nc1nc(-c2cnc(N(C)C(=O)c3c(F)cccc3Cl)c(N3CCCCC3)c2)n(C(C)C)n1",
    "Rel": ">",
    "EC50 [nM]": 1000
  },
  {
    "Compound": "[2H]C([2H])([2H])N(C(=O)c1c(F)cccc1Cl)c1ccc(-c2cc(NC(=O)C(C)C)nn2C(C)C)cc1N1CC2CC2C1 (stereo not given)",
    "Rel": "=",
    "EC50 [nM]": 15
  }
]

###

# Assay system: Nuclear receptor subfamily 1 group I member 2 (Homo sapiens)
# Sequence (O75469 whole entry): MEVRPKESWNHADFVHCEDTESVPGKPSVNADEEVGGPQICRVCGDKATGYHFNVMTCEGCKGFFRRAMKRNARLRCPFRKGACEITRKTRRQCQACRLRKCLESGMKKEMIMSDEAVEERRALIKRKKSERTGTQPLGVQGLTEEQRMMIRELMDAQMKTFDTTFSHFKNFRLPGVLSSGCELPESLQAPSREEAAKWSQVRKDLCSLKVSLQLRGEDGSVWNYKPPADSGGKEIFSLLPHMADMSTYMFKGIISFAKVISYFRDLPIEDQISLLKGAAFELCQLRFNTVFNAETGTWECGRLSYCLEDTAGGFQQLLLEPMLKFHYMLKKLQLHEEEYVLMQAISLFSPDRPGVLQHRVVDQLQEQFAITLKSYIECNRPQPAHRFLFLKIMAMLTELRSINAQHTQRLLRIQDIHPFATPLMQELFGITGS
# Assay procedure: Activation of PXR (unknown origin)

[
  {
    "Compound": "[2H]C([2H])([2H])N(C(=O)c1c(F)cccc1Cl)c1ccc(-c2cc(NC(C)=O)nn2C(C)C)cc1-c1ccccc1",
    "Rel": ">",
    "EC50 (nM)": 10000
  },
  {
    "Compound": "[2H]C([2H])([2H])N(C(=O)c1c(Cl)cccc1Cl)c1ccc(-c2cc(NC(C)=O)nn2C(C)C)cc1N1CC2CC2C1 (configuration not stated)",
    "Rel": "=",
    "EC50 (nM)": 500
  },
  {
    "Compound": "[2H]C([2H])([2H])N(C(=O)c1c(F)cccc1Cl)c1ccc(-c2cc(NC(C)=O)nn2C2CCCC2)cc1N1CC2CC2C1 (configuration not stated)",
    "Rel": "=",
    "EC50 (nM)": 500
  },
  {
    "Compound": "[2H]C([2H])([2H])N(C(=O)c1c(F)cccc1Cl)c1ccc(-c2cc(NC(C)=O)nn2C(C)C)cc1N1CCCCC1",
    "Rel": ">",
    "EC50 (nM)": 10000
  },
  {
    "Compound": "CC(=O)Nc1nc(C(C)C)c(-c2cnc(N(C)C(=O)c3c(F)cccc3Cl)c(N3CCCCC3)c2)s1",
    "Rel": "=",
    "EC50 (nM)": 400
  },
  {
    "Compound": "[2H]C([2H])([2H])N(C(=O)c1c(F)cccc1Cl)c1ccc(-c2cc(NC(C)=O)nn2C(C)C2CC2)cc1N1CC2CC2C1 (configuration not stated)",
    "Rel": "=",
    "EC50 (nM)": 900
  },
  {
    "Compound": "[2H]C([2H])([2H])N(C(=O)c1c(F)cccc1Cl)c1ccc(-c2cc(NC(C)=O)nn2C(C)C)cc1N1CCCC1",
    "Rel": "=",
    "EC50 (nM)": 800
  }
]

###

# Assay procedure: Percentage unbound in human plasma
# Type: ADME, cell-free
Measurement kind: fraction unbound

[
  {
    "Compound": "[2H]C([2H])([2H])N(C(=O)c1c(F)cccc1Cl)c1ccc(-c2cc(C(N)=O)nn2C(C)C)cc1OCC(F)(F)F",
    "Result": 0.059
  },
  {
    "Compound": "[2H]C([2H])([2H])N(C(=O)c1c(Cl)cccc1Cl)c1ccc(-c2cc(NC(C)=O)nn2C(C)C)cc1N1CC2CC2C1 (stereo not drawn)",
    "Result": 0.004
  },
  {
    "Compound": "[2H]C([2H])([2H])N(C(=O)c1c(F)cccc1Cl)c1ccc(-c2cc(NC(C)=O)nn2C(C)C)cc1N1CCCCC1",
    "Result": 0.004
  }
]
